Hello, the source for this data is ChEMBL document CHEMBL1833860, in case you need it.

Experiment: Half life in rat at 1 mg/kg, iv and 3 mg/kg, po
Type: ADME, organism-based
Conditions: in vivo
VALUE_TYPE: half-life (h)

[[record]]
compound_structure_string = "COc1ccc(Nc2nc(N[C@@H]3CCOC[C@@H]3N)ncc2C(N)=O)cc1"
measurement_units = "h"
measured_value = 2.3


[I] Cc1cccc(Nc2nc(N[C@@H]3CCOC[C@@H]3N)ncc2C(N)=O)c1
[II] Cc1ccc(Nc2nc(N[C@@H]3CCOC[C@@H]3N)ncc2C(N)=O)cc1
Task item: Consider I and II . Which of these has its half-life at a higher number? Could you answer with the label of the item you picked?
Reply: II
(II: 4.2 h, I: 1.9 h)

----------
Experiment: Aqueous solubility of compound in fed state simulated intestinal fluid at pH 6.5
Assay type: physicochemical
VALUE_TYPE: solubility (µg/mL)
Hi! Could you send only the number? It should be in µg/mL, unit omitted.

Reported solubility for Cc1ccc(Nc2nc(N[C@@H]3CCOC[C@@H]3N)ncc2C(N)=O)cc1 was 420
